assay: Liver microsomal stability, rat; assay type: in vitro ADME; settings: rat liver microsomes, 1 μM (verapamil 0.5 μM)
Kindly state Clint for each of the entries shown.
Give bare numbers, in mL/min/g liver.

>  <molecule>
CCc1ccc(/C=C/C(=O)CCc2ccc(O)c(OC)c2)s1 [STC7]

>  <assay value>
8.52

$$$$
>  <molecule>
COc1cc(CCC(=O)/C=C/c2cccs2)ccc1O [STC2]

>  <assay value>
9.46

$$$$
>  <molecule>
COc1cc(CCC(=O)/C=C/c2cc(Br)cs2)ccc1O [STC4]

>  <assay value>
8.79

$$$$
>  <molecule>
COc1cc(CCC(=O)/C=C/c2ccc([N+](=O)[O-])s2)ccc1O [STC8]

>  <assay value>
10.57

$$$$
>  <molecule>
COc1cc(CCC(=O)/C=C/c2ccc(Br)s2)ccc1O [STC6]

>  <assay value>
8.17

$$$$

Could you now look at the following molecule, please?
Request: Name the recorded Clint of the item COc1cc(CCC(=O)/C=C/c2cc(-c3ccccc3)cs2)ccc1O [STC5] in your answer.
Result: 7.22
